Each entry below lists one item and its recorded Percent Effect value.
Target: Chromo domain-containing protein 1 (Saccharomyces cerevisiae (strain ATCC 204508 / S288c) (Baker's yeast)) (UniProt P32657)
Sequence (P32657 whole entry, the tested form may be a part): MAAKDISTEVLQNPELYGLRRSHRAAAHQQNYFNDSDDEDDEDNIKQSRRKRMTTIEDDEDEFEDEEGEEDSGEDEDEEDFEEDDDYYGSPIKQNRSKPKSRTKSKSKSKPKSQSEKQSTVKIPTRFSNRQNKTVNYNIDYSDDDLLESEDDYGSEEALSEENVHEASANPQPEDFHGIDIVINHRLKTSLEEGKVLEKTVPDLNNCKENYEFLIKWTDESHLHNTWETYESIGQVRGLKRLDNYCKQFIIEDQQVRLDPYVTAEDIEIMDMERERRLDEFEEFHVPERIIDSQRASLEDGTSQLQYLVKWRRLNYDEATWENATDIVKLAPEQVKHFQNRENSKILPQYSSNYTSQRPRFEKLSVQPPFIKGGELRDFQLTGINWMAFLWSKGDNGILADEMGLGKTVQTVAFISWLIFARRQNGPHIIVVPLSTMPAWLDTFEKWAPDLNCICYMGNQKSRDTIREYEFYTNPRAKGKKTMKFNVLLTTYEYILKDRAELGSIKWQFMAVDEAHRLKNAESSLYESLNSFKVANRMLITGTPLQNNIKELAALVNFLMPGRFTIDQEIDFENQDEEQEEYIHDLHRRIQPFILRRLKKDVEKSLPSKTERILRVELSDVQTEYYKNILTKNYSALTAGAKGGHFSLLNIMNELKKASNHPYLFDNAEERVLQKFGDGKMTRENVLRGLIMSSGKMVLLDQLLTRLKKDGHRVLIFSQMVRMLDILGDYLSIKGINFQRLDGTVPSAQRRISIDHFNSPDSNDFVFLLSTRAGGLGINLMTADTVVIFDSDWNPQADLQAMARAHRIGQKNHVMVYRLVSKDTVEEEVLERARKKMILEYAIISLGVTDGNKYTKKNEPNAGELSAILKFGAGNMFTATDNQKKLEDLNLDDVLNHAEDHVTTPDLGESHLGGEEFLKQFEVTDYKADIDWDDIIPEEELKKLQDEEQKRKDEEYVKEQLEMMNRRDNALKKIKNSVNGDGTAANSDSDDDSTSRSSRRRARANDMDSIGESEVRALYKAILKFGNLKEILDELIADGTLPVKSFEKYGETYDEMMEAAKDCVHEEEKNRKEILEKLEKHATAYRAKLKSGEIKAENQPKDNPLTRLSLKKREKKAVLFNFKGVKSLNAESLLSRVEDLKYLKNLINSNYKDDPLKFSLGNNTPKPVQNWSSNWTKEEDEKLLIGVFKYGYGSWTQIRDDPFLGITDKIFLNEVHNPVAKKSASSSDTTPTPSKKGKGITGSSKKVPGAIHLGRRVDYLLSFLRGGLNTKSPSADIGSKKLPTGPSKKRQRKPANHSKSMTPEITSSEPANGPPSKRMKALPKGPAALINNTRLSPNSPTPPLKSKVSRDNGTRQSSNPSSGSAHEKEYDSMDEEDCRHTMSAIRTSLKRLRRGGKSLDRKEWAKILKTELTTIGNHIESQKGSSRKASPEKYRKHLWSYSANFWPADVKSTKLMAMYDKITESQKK
Assay: ScCHD-1 Enzyme Inhibition Assay
Assay type: functional
Parameters: scale not given: in the data most compounds retested in dose-response had high values
Details: 30 µM
OBSERVED_PROPERTY: Percent Effect (%)

- O=C(O)c1cc(NS(=O)(=O)c2cccc(Cl)c2F)ccc1Cl: -3.44
- COCCO[C@H]1CCN(C(=O)c2cc(C)on2)[C@H]1Cc1ccccc1: -5.82
- CNc1cc(C)nc(C2CN(Cc3ccc(C)nc3)CCO2)c1 (stereo unspecified): -10.8
- CCc1[nH]ncc1C(=O)N1CCCN(Cc2cnn(C(C)C)c2)CC1: -9.88
- NC(=O)c1cccc(CC2CCN(C(=O)CO)C2)c1 (stereo unspecified): -3.86
- OCC1CCCN1c1cc(N2CCN(c3ccccn3)CC2)ncn1 (stereo unspecified): -17.6
- Cc1ncc2c(n1)CN(Cc1nnc(Cc3ccccc3)o1)CC2: -9.78
- Cn1cc(CN2CCCC3(CCN(Cc4cccnc4)C3=O)C2)cn1 (stereo unspecified): 1.58
- CC(C)c1cc(NCC(O)c2ccc(F)cc2)n2nccc2n1 (stereo unspecified): 4.86
- Cc1cccc(N2CC[C@@H]3CN(Cc4csc(C)n4)CCO[C@@H]3C2)n1: -0.609
- CCCOCCCNc1nccc(-c2cn(C)nc2C)n1: -2.61
